Quick reference: %Inh of the listed items.
system: EPHA8; conditions: concentration: 1 μM, replicates: in singlicate; n = 1;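 also: KINOMEscan kinase panel screen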
The answer is to be given in %; state only the numeric part.

Sample records with %Inh:
# molecule, system-name, unit-string, %Inh
measured = [
    ("Fc1cccc(CSc2nnc(-c3ccc4c(c3)CCO4)o2)c1", "EPHA8", "%", 11),
    ("Nc1ncnc2c1ncn2-c1cccc2ccccc12 [SKF-97184]", "EPHA8", "%", 0),
    ("COC(=O)c1c(-c2ccccc2)c2cc(Br)ccc2c(=O)n1Cc1ccc(NC(=O)CCC(=O)O)cc1", "EPHA8", "%", 12),
    ("Cc1nn2c(=O)cc(N3CCOCC3)nc2n1Cc1cccc(Cl)c1Cl [GSK2342769]", "EPHA8", "%", 6),
    ("COc1cc2ncn(-c3cc(OCc4ccncc4)c(C(N)=O)s3)c2cc1OC [GSK336313]", "EPHA8", "%", 0),
]

Reported %Inh for COC(=O)c1c(-c2ccccc2)c2cc(C)ccc2c(=O)n1Cc1ccccc1 : what is it?
0

====

Quick reference: %Inh of the listed items.
tested on: JNK3; construct: gene MAPK10; conditions: concentration: 1 μM, replicates: in singlicate; n = 1

Sample records with %Inh:
# line-notation, reported-measurement
rows = [
    ("Cl.c1ccc(Cn2cnc3cc(Nc4ncnc5ccccc45)ccc32)cc1", "0%"),
    ("COc1cccc(-n2cnc3c(N)ncnc32)c1", "8%"),
    ("COC(=O)c1c(-c2ccccc2)c2cc(Br)ccc2c(=O)n1Cc1ccc(S(C)(=O)=O)cc1", "98.6%"),
]

Then there is this molecule:
Reported %Inh for COc1cc2ncn(-c3cc(OCc4ccncc4)c(C(N)=O)s3)c2cc1OC : what is it?
1%

====

test system: TAOK2; details: concentration: 1 μM, replicates: in singlicate; n = 1
measured-attribute: %Inh (%)
The answer is to be given in %; state only the numeric part.

# line-notation, %Inh, %
records = [
    ("COc1ccc(-c2cc3c(C)nc(N)nc3n([C@H]3CC[C@H](O)CC3)c2=O)cn1", 0),
    ("COc1cc2nccc(Nc3ccc(OCc4ccc(NC(C)=O)cc4)cc3)c2cc1OC.Cl", 0),
    ("CCc1nc(-c2cccc(C)c2)c(-c2ccncc2)s1", 14),
    ("Fc1cccc(CSc2nnc(-c3ccc4c(c3)CCO4)o2)c1", 0),
    ("Cc1nc(N(C)[C@H]2CN(C(=O)CC#N)CC[C@H]2C)c2cc[nH]c2n1", 0),
    ("Cl.NS(=O)(=O)c1cccc(Nc2cc(-c3ccc(F)cc3)n[nH]2)c1", 36),
]

Then there is this compound:
Reported %Inh for FC(F)(F)c1ccc(-c2ncn(CCCN3CCOCC3)c2-c2ccncc2)cc1 : what is it?
0

====

tested on: RPS6KA5(Kin.Dom.1-N-terminal); conditions: concentration: 1 μM, replicates: in singlicate; n = 1
Tick TRUE if %Inh is 2% or greater. Tick FALSE if %Inh is less than 2%.

Some entries whose results are on file:
# compound, system-name, classification
records = [
    ("COc1cc2nccc(Nc3cccc(Oc4ccccc4)c3)c2cc1OC.Cl", "RPS6KA5(Kin.Dom.1-N-terminal)", "FALSE"),
    ("OCCCNc1nccc(-c2c(-c3cccc(C(F)(F)F)c3)nn3cc(C(F)(F)F)ccc23)n1", "RPS6KA5(Kin.Dom.1-N-terminal)", "FALSE"),
    ("Cc1ccc(Oc2ccc(Nc3ncnc4cc[nH]c34)cc2C)cn1", "RPS6KA5(Kin.Dom.1-N-terminal)", "TRUE"),
    ("O=C(NCc1cccs1)c1cc(C(=O)c2c(Cl)cccc2Cl)c[nH]1", "RPS6KA5(Kin.Dom.1-N-terminal)", "FALSE"),
    ("CCCC(=O)Nc1n[nH]c2ncc(-c3cccc4ccccc34)cc12", "RPS6KA5(Kin.Dom.1-N-terminal)", "TRUE"),
]

In plain terms: is recorded %Inh at least 2% for Cc1cc(Nc2nc(-c3cccc(C)n3)nc3ccccc23)ccn1 ?
FALSE

In plain terms: is recorded %Inh at least 2% for CCn1c(-c2nonc2N)nc2ccccc21 ?
FALSE

In plain terms: is recorded %Inh at least 2% for CCC(=O)c1c(-c2ccccc2)c2cc(Cl)ccc2c(=O)n1Cc1cc(S(C)(=O)=O)n(CC(F)F)n1 ?
FALSE

In plain terms: is recorded %Inh at least 2% for O=C(Nc1n[nH]c2nc(-c3ccccc3)c(Cl)cc12)C1CC1 ?
FALSE
